system-name: Zap1 (UniProt P47043)
Sequence: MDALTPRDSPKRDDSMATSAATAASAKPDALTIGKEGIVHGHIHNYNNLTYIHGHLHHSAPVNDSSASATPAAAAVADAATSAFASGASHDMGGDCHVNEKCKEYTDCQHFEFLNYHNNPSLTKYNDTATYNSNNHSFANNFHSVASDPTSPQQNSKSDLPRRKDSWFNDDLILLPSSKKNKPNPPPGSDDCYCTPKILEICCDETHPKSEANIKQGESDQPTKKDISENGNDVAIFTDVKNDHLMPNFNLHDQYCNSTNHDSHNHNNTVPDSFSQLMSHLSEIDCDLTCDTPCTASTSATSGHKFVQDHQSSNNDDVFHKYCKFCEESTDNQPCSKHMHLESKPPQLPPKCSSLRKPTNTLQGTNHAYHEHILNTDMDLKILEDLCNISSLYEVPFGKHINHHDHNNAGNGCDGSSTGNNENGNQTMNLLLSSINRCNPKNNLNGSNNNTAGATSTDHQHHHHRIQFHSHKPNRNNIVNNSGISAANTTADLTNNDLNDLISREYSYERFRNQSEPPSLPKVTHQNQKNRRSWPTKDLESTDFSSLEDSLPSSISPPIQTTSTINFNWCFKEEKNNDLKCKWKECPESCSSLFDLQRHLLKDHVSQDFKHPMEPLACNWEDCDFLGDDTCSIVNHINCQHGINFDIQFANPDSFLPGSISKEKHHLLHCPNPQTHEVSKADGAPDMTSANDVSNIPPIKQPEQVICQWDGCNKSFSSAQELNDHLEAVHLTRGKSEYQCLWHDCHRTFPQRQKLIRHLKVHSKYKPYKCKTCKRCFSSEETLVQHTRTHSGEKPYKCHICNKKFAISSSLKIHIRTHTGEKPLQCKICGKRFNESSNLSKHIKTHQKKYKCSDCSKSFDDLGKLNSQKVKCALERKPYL
procedure-details: PBM E-score (8-mer binding enrichment) (E-score (-0.5 to 0.5)); higher = stronger / more preferred TF binding
study-conditions: protein concentration: 200 nM; construct: GST-full length
Whole data set: some 33,000 sequences, median “E-score (-0.5 to 0.5)” near -0.021, cut for the highest 2% near 0.32. Only a selection was taken, and the highest values are over-represented in it overall.
Task for the reader: assign each of the following sequences its reported PBM E-score.
Give bare numbers.

Below, 5 sequences whose answers are already recorded.
GACCCCTA | 0.276
AAGTTGCG | 0.0515
ACCCAGCA | 0.0307
AGGTTGTG | 0.349
AGGTTGCC | 0.088

// each sequence listed below needs its PBM E-score
1. AGGTTGCG
2. AGGTTGCA
3. AGGTTGGG
4. ACAAGAGA
5. TATACATA

[0.333, 0.299, 0.232, -0.043, 0.106]

Form: Entry = GGGTTGGA | System = Zap1 (UniProt P47043) | PBM E-score = ____
0.16

----------
Task for the reader: assign each of the following sequences its reported PBM E-score.
system-name: Zap1 (UniProt P47043)
Sequence: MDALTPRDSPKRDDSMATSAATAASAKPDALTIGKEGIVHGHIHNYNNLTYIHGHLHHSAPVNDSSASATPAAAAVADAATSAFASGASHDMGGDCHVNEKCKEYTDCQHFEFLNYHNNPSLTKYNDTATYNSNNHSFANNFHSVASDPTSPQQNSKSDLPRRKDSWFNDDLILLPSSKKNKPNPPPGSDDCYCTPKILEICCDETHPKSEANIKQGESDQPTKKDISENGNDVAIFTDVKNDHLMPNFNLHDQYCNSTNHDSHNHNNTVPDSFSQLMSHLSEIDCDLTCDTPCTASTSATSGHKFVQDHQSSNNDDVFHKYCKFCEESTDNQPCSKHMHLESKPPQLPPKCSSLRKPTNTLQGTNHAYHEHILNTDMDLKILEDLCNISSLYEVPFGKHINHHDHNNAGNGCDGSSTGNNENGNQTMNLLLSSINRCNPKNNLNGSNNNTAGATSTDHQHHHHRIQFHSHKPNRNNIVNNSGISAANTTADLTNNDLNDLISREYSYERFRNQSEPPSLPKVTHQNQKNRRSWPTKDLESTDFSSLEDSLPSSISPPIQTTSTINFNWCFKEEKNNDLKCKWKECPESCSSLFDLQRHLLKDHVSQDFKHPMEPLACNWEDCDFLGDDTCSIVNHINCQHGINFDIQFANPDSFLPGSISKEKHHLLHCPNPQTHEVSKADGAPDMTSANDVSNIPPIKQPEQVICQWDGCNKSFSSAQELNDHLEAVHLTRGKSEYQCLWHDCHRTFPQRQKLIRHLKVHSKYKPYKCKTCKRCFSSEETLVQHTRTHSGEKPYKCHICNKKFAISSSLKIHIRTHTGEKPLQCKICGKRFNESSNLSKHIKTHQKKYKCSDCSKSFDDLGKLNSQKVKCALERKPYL
procedure-details: PBM E-score (8-mer binding enrichment) (E-score (-0.5 to 0.5)); higher = stronger / more preferred TF binding
study-conditions: protein concentration: 200 nM; construct: GST-full length
Over roughly 33,000 sequences, “E-score (-0.5 to 0.5)” has its median near -0.021; the highest 2% begin near 0.32. This is one part of a sample in which the highest values are shown more often than they occur.
One number for each entry.

CGTTACCA | 0.31

For every item below, please supply its PBM E-score.
1. CGTTACTA
2. GACAGCGA
3. AGATATCT
4. AACCTTGC
5. GCCCTCTA
6. ATGGTACC

0.0809
-0.275
0.0317
0.305
-0.245
0.392

----------
system-name: Zap1 (UniProt P47043)
Sequence: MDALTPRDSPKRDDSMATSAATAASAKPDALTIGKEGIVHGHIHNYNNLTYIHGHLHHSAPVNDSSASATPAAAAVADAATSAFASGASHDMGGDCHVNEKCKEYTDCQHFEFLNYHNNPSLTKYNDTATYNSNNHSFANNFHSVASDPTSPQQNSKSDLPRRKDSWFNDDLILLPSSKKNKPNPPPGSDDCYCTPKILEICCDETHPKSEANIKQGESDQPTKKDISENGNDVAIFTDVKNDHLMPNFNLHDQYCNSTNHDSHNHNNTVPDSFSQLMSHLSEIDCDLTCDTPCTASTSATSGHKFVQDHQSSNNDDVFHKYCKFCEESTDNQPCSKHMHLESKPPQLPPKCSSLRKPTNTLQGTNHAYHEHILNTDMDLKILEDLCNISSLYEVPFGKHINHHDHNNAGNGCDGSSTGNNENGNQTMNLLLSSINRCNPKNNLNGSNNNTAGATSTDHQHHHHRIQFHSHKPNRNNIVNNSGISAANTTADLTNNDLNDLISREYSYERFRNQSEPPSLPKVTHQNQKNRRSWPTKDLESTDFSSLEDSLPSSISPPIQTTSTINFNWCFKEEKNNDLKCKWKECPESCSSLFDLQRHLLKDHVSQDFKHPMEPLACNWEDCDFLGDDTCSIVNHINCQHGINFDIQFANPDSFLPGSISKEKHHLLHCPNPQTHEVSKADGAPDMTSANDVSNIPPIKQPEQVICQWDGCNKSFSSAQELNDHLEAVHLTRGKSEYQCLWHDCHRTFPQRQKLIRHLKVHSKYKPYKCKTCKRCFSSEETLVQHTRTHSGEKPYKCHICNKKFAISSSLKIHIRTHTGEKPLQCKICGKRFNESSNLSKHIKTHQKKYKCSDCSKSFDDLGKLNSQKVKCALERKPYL
procedure-details: PBM E-score (8-mer binding enrichment) (E-score (-0.5 to 0.5)); higher = stronger / more preferred TF binding
study-conditions: protein concentration: 200 nM; construct: GST-full length
Whole data set: some 33,000 sequences, median “E-score (-0.5 to 0.5)” near -0.021, cut for the highest 2% near 0.32. The sample holds the highest values, similar sequences and a random draw of the others, so the mix is not that of the screen.
Dear colleague, classification is by PBM E-score, with ranges listed here: low group: < 0.01; middle group: ≥ 0.01 and < 0.2; high group: ≥ 0.2

AAGGTTTA | high group
AGCTAAAC | low group
AAGGTTAA | high group
GTGAGCGA | middle group

Would you mind sorting CGGGTGTA into the appropriate category?
middle group

Entry GCCCAAAA belongs to which category?
middle group

----------
system-name: Zap1 (UniProt P47043)
Sequence: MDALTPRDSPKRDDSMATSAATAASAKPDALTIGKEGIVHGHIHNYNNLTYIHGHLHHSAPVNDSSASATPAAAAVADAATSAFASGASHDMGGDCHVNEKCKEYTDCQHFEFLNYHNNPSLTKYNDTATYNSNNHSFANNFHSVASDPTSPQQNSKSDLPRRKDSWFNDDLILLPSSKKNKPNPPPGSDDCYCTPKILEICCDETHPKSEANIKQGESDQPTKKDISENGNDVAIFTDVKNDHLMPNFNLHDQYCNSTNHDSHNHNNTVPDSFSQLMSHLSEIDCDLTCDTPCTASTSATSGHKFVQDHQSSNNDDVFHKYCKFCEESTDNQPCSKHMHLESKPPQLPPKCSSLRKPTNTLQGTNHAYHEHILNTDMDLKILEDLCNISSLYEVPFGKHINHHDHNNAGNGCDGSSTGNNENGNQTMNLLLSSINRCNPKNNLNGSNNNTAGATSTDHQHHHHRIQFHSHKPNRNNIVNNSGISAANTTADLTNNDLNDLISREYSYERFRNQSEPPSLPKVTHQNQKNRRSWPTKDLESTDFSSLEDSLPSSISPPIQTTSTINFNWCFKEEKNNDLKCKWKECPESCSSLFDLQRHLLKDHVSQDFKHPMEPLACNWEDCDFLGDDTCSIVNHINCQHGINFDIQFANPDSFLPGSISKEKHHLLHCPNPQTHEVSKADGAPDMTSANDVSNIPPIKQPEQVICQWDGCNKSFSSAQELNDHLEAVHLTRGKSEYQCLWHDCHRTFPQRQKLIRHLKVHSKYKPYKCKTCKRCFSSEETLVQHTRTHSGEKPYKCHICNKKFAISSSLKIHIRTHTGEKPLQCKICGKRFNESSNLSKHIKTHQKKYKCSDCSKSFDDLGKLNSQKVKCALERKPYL
procedure-details: PBM E-score (8-mer binding enrichment) (E-score (-0.5 to 0.5)); higher = stronger / more preferred TF binding
study-conditions: protein concentration: 200 nM; construct: GST-full length
In all, about 33,000 sequences were measured (“E-score (-0.5 to 0.5)”: median about -0.021, highest 2% from about 0.32 on). The sample holds the highest values, similar sequences and a random draw of the others, so the mix is not that of the screen.
property-label: PBM E-score
Give bare numbers.

Use the examples below as a reference point.
GTGGGTGA | 0.0723
AGCTTGGG | -0.06
AGGTACCA | 0.347
CGGTTAGC | 0.151
AAGGGTTC | 0.339

I'm hoping you can list PBM E-score for every sequence here, please.
1. AACCCTTA
2. ATGGTCAA
3. CCCTCTGA
4. CGCCCAGC
5. GAGGTTCC
6. CGAAGCAG
7. GCCTACTA
8. ATCTGAGG

0.457
0.245
0.0399
-0.209
0.223
-0.165
-0.0183
0.094

Provide the reported PBM E-score of each entry below, same order.
1. CGTTAGAG
2. AGTTTGCA
3. ACGTTACA
4. CTGGGTCA
5. CTGGGTTA
6. GGGTACCA

1. -0.109
2. -0.0409
3. -0.0394
4. 0.143
5. 0.369
6. 0.4
